- TARGET OR SYSTEM: LasB (Pseudomonas aeruginosa, UniProt Q02RJ6)
- Construct: made in house
- Sequence (Q02RJ6 198-498): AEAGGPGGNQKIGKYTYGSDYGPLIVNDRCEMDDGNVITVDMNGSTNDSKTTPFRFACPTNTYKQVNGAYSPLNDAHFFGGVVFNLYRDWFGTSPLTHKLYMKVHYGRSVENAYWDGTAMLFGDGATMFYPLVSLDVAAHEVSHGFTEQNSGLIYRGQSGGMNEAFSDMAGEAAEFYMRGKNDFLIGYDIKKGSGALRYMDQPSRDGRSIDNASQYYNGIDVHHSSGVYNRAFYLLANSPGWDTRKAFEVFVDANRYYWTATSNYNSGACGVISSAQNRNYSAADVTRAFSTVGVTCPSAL
- PROTOCOL SUMMARY: In vitro LasB inhibition assay
- Format: biochemical
- CONDITION SET: read-out: IC50 LasB inhibition
READOUT LABEL: pIC50
Please keep in mind that pIC50 is minus log10 of the molar concentration; only the number is needed.

Example results:
CC(C)CC(C(=O)N[C@H](C(=O)Nc1ccc(Cl)c(Cl)c1)c1ccccc1)P(=O)(O)O (some centres unmarked)	7.00
CC[C@H](C)[C@H](NC(=O)C(CC(C)C)P(=O)(O)O)C(=O)Nc1ccc(Cl)c(Cl)c1 (some centres unmarked)	7.88
CC(C)CC(C(=O)N[C@@H](CC1CCOCC1)C(=O)Nc1ccc(Cl)c(Cl)c1)P(=O)(O)O (some centres unmarked)	6.42

Lookup result for CC(C)CC(C(=O)N[C@@H](CC1CC1)C(=O)Nc1ccc(Cl)c(Cl)c1)P(=O)(O)O (some centres unmarked) ; measured pIC50: 7.57

Lookup result for CC(C)CC(C(=O)N[C@@H](CC(C)C)C(=O)Nc1ccc(Cl)c(Cl)c1)P(=O)(O)O (some centres unmarked) ; measured pIC50: 7.23

Lookup result for CC(C)CC(C(=O)N[C@@H](C)C(=O)Nc1ccc(Cl)c(Cl)c1)P(=O)(O)O (some centres unmarked) ; measured pIC50: 7.21

Lookup result for CC(C)C[C@H](C(=O)N[C@@H](Cc1cccnc1)C(=O)Nc1ccc(Cl)c(Cl)c1)P(=O)(O)O [(R)‐25] ; measured pIC50: 6.24

Lookup result for CC(C)CC(C(=O)N[C@@H](Cc1ccccc1)C(=O)Nc1ccc(Cl)c(Cl)c1)P(=O)(O)O (some centres unmarked) ; measured pIC50: 6.37

----------
- PROTOCOL SUMMARY: In vivo pharmacokinetic study in CD-1 mice, 30 mg/kg SC
- CONDITION SET: male, CD-1, epithelial lining fluid (ELF) / plasma, sc; mouse, 30 mg/kg subcutaneous; read-out: ELF/plasma ratio
READOUT LABEL: Kp

Lookup result for CC(=O)c1ccc(NC(=O)[C@@H](NC(=O)C(CC(C)C)P(=O)(O)O)C(C)C)cc1 (stereo partly shown) ; measured Kp: ~0.38

----------
- TARGET OR SYSTEM: LasB (Pseudomonas aeruginosa)
- Construct: made in house
- PROTOCOL SUMMARY: In vitro LasB inhibition assay
- Format: biochemical
- CONDITION SET: IC50 LasB inhibition
pIC50: −log10 of the molar value.
Given measured pIC50, output 1.0 if it is greater than or equal to 7 and 0.0 if not.

Here's what some known entries look like.
CC(C)CC(C(=O)N[C@H](C(=O)Nc1ccc(C(=O)C(F)(F)F)cc1)C(C)C)P(=O)(O)O (some centres unmarked)	1.0
CC(C)CC(C(=O)N[C@H](C(=O)Nc1ccc(OC(C)C)cc1)C(C)C)P(=O)(O)O (some centres unmarked)	1.0

### Prompt State whether the measured pIC50 reaches 7, counting equality as reaching it, for CC(C)CC(C(=O)N[C@@H](C(=O)Nc1ccc(Cl)c(Cl)c1)C(C)C)P(=O)(O)O (some centres unmarked)
### Response 1.0

### Prompt State whether the measured pIC50 reaches 7, counting equality as reaching it, for CC(C)CC(C(=O)N[C@H](CC(=O)Nc1ccc(Cl)c(Cl)c1)C(C)C)P(=O)(O)O (some centres unmarked)
### Response 0.0

### Prompt State whether the measured pIC50 reaches 7, counting equality as reaching it, for COc1ccc(NC(=O)[C@@H](NC(=O)C(CC(C)C)P(=O)(O)O)C(C)C)cc1 (some centres unmarked)
### Response 1.0

### Prompt State whether the measured pIC50 reaches 7, counting equality as reaching it, for CC(C)CC(C(=O)N[C@H](C(=O)Nc1ccc(C(F)(F)F)cc1)C(C)C)P(=O)(O)O (some centres unmarked)
### Response 1.0

The origin of these recorded values is paper PMC11984924.
